In this section we review reported Ratio values for a set of molecules.
Species: Homo sapiens
Experiment: Selectivity ratio of Ki for human SERT to IC50 for human recombinant MPO-mediated LDL oxidation
Form field (numeric): enter value without unit.

Below, each entry is followed by its recorded Ratio result.
> print(dat)
                                   molecule  outcomemeasure  valuereported
1  NCC(N)CCc1c[nH]c2ccc(F)cc12 (stereo not drawn)           Ratio            0.2
2     CCN(CCCc1c[nH]c2ccc(F)cc12)S(C)(=O)=O           Ratio            0.3
3          Fc1ccc2[nH]cc(CCCNCc3ccccc3)c2c1           Ratio            4.1
4                  NCCCCc1c[nH]c2c(F)cccc12           Ratio            1.3
5  Fc1ccc2[nH]cc(CCCN3CCN(c4ccccc4)CC3)c2c1           Ratio            1.6

Exam item: Field request: Ratio | item: `NCCSCCc1c[nH]c2ccc(F)cc12`
Marked response: 0.6

Exam item: Field request: Ratio | item: `NCCSCCCc1c[nH]c2ccc(F)cc12`
Marked response: 0.02

Exam item: Field request: Ratio | item: `NCCSCCc1c[nH]c2c(F)cccc12`
Marked response: 8

Exam item: Field request: Ratio | item: `NCCCc1c[nH]c2c(F)cccc12`
Marked response: 1

Exam item: Field request: Ratio | item: `OCCNCCCc1c[nH]c2ccc(F)cc12`
Marked response: 6.2

Exam item: Field request: Ratio | item: `N#CCCCc1c[nH]c2ccc(F)cc12`
Marked response: 2.9

Exam item: Field request: Ratio | item: `N#CSCCCc1c[nH]c2ccc(F)cc12`
Marked response: 42

Exam item: Field request: Ratio | item: `CCN(CCc1c[nH]c2ccc(F)cc12)S(C)(=O)=O`
Marked response: 12

###

Target: Myeloperoxidase (Homo sapiens, UniProt P05164)
Sequence (P05164 whole entry): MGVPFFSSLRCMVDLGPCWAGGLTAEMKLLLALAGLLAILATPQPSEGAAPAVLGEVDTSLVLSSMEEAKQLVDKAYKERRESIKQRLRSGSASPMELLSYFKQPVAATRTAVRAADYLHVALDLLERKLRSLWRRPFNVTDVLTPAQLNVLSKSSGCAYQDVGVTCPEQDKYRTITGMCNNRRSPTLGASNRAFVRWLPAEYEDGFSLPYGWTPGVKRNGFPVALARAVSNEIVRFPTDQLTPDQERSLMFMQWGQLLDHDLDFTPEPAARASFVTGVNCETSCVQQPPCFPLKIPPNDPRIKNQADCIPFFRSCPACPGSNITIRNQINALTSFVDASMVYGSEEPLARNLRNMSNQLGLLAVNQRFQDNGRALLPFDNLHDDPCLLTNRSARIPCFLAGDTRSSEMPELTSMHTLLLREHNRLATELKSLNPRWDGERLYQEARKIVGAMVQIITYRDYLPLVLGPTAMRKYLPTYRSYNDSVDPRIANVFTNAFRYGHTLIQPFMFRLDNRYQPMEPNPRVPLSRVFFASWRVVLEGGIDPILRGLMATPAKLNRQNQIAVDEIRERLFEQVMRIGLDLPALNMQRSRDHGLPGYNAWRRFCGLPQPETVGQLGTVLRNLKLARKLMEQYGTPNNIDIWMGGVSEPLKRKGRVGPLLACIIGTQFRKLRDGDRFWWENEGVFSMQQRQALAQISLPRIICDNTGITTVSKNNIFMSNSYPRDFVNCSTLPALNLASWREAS
Test: Inhibition of human recombinant MPO-mediated taurine chlorination after 5 mins by microplate assay
Format: single protein
Conditions: read-out: IC50
Lab note: compare IC50 with 30 nM, writing true if less and false if equal or more.

Exam item: Identify whether the molecule `NC(=O)CCCCc1c[nH]c2c(F)cccc12` records IC50 below 30 nM.
Marked response: false

Exam item: Identify whether the molecule `NCCc1c[nH]c2c(F)cccc12` records IC50 below 30 nM.
Marked response: true

Exam item: Identify whether the molecule NCC(N)CCc1c[nH]c2ccc(F)cc12 (configuration not stated) records IC50 below 30 nM.
Marked response: false

Exam item: Identify whether the molecule `NCCSCCCc1c[nH]c2c(F)cccc12` records IC50 below 30 nM.
Marked response: false

Exam item: Identify whether the molecule `NCCCc1c[nH]c2c(F)cccc12` records IC50 below 30 nM.
Marked response: true

Exam item: Identify whether the molecule `Fc1ccc2[nH]cc(CCCN3CCN(c4ccccc4)CC3)c2c1` records IC50 below 30 nM.
Marked response: true

Exam item: Identify whether the molecule `CCNC(=O)CCCc1c[nH]c2ccc(F)cc12` records IC50 below 30 nM.
Marked response: false
